Assay text: S6 kinase pathway phospho-S6 level changes – cell-based, A549, cytoblot, luminescence, serum-stimulated, primary screen (AID 1158);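 note: serum-stimulated A549 lung adenocarcinoma cells; signal is phosphorylated S6 detected by cytoblot immunostaining with HRP secondary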
Setup conditions: 5 h, higher = more signal
Record true whenever z-score is at 0.04 or higher; record false when lower.

Substance smiles | Assigned class
COCC1=C([C@H](O)CCc2ccccc2)[C@H](CO)[C@@H]2C(=O)N(Cc3ccccc3)C(=O)[C@@H]2C1 | true
CCOC(=O)C[C@H]1[C@H](OC(=O)c2ccccc2-c2ccccc2)[C@@H](NC(=O)c2ccc(-c3ccccc3)cc2)c2cc(OCCCO)ccc2N1C(=O)c1ccccc1 | true
CCOC(=O)C1=C[C@@H](C(C)(C)C)N(S(=O)(=O)c2ccc(C)cc2)[C@H]1c1ccc(Cl)c(Cl)c1 | false
COC(=O)c1c2oc(c1C(=O)OC)C(=O)N[C@H](Cc1ccccc1)Cn1nncc1C1(CCCCC1)NC(=O)N[C@H](CO)CC2 | true
CCOC(=O)C1=CC[C@@H](c2ccccc2)N(S(=O)(=O)c2ccc(C)cc2)[C@H]1c1ccc(C#N)cc1 | false
CO[C@H]1O[C@H](CO)[C@@H](OC(=O)Nc2cccc(F)c2)[C@H](OC(=O)Nc2ccccc2-c2ccccc2)[C@@H]1OC(=O)Nc1ccccc1-c1ccccc1 | true
C=CCCN(CC#C[C@H]1Oc2ccccc2S(=O)(=O)N2CCC[C@@H]12)S(=O)(=O)c1ccc(C)cc1 | false
